FYI, the data here is from patent US20240043563A1.

Listed below: koff values for each entry.
target: MASP-2-CCS-Flag (human) (UniProt O00187); test: SPR, Biacore T200, antibody captured on Protein A chip, MASP-2-CCS-Flag as analyte
Sequence (O00187 other isoform, or with tags, fused parts or gaps limits assumed, form in doubt): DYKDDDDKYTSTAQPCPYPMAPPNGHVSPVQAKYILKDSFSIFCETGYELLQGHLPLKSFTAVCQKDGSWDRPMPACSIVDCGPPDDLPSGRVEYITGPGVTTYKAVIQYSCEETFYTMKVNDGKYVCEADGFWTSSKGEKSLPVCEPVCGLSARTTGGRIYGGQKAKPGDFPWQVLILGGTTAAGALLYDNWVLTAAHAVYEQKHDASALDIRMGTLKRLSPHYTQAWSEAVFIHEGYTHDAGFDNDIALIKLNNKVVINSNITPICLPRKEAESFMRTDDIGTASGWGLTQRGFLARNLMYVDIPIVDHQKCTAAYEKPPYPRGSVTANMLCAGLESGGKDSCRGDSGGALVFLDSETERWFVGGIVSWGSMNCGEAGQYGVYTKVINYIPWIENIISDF
Endpoint Name: koff (s⁻¹)

• humanized anti-human MASP-2 monoclonal antibody 136-Hu (antibody, human IgG4 S228P, kappa, V domains shown) VH: QVQLVQSGAEVKKPGASVKVSCKASGNTFTNYWMHWIRQAPGQGLEWMGYINPNTGYTDFNQKFKDRVTLTADKSTSTAYMELSSLRSEDTAVYYCTLQLGRNFDYWGQGTTVTVSS VL: DIQMTQSPSSLSASVGDRVTITCRASQSVSSSRSTYIHWYQQKPGKAPKLLIYYSSNLESGVPSRFSGSGSGTDFTLTISSLQPEDFATYYCHQSWEIPYTFGQGTKLEIKR = 0.000589
• humanized anti-human MASP-2 monoclonal antibody 126-Hu (antibody, human IgG4 S228P, kappa, V domains shown) VH: QVQLVESGGGVVQPGRSLRLSCAASGFTFSSFGMHWVRQAPGKGLEWVAYISSGSSSSFYVDTVKGRFTISRDNSKNTLYLQMNSLRAEDTAVYYCARGDRNFEVWGQGTTVTVSS VL: DIQMTQSPSSLSASVGDRVTITCRASQSVSSSRYSYMHWFQQKPGKAPKLLIYHASNLESGVPSRFSGSGSGTDFTLTISSLQPEDFATYYCQQSWEVPWTFGQGTKLEIKR = 6.33e-05
• humanized anti-human MASP-2 monoclonal antibody 100-Hu (antibody, human IgG4 S228P, kappa, V domains shown) VH: QVQLVESGGGVVQPGGSLRLSCAASGFTFSNFGIHWVRQAPGKGLEWVAYISSGGSAVFYADTVKGRFTISRDNSKNTLYLQMNSLRAEDTAVYYCAKSDRYFDYWGQGTTVTVSS VL: EIVLTQSPATLSLSPGERATLSCRASQSVSSSSYRYIHWYQQKPGQAPRLLIYYASNLESGIPARFSGSGSGTDFTLTISSLEPEDFAVYYCQHSWETPWTFGQGTKLEIKR = 0.000298
• humanized anti-human MASP-2 monoclonal antibody 124-Hu (antibody, human IgG4 S228P, kappa, V domains shown) VH: QVQLQESGPGLVKPSQTLSLTCTVSGYSITSDYAWNWIRQPPGKGLEWMGYISYSGRTSYNPSLKSRLTISRDTSKNQFSLKLSSVTAADTAVYYCARHYGDFWGQGTTVTVSS VL: DIQMTQSPSSLSASVGDRVTITCKASQNVDTNVAWYQQKPGKAPKLLIYSASYRYSGVPSRFSGSGSGTDFTLTISSLQPEDFATYYCQQYNSYPSTFGQGTKLEIKR = 0.000582
